- Test system: PC-3 prostate
- TEST SUMMARY: NCI tumour cell line growth inhibition, 48 h
Response key: true (1) means TGI >= 30 µM; false (0) means TGI < 30 µM.

Illustrative cases are given below, each with its answer.
(Q) Hello, I need to know if COc1cccc(Nc2nc(NNC(=O)Cc3ccccc3)nc(NNC(=O)c3ccncc3)n2)c1 has measured TGI not below 30 µM. Thanks!
(A) true (1)

(Q) Given the entry Cn1c(-c2ccccc2)cc(-c2ccc3c(c2)OCO3)c1-c1cccs1 , answer whether its TGI meets or surpasses 30 µM.
(A) true (1)

(Q) Hello, I need to know if CC(=O)Nc1ccc2nncnc2c1 has measured TGI not below 30 µM. Thanks!
(A) true (1)

(Q) TGI >= 30 µM for CCCc1cc(=O)oc2c(C(=O)CC(C)C)c(O)c(CC=C(C)C)c(O)c12 ?
(A) true (1)

More entries:
(Q) Textbook exercise: given the entry C[N+](C)(C)CCOP(=O)(O)OP(=O)([O-])OCC1CCC(n2ccc(N)nc2=O)O1 (configuration not stated) , state whether its TGI is greater than or equal to 30 µM.
(A) true (1)

(Q) Could you please find out whether CCN(CC)CCNc1ccc([N+](=O)[O-])c2nc3ccccc3c(N)c12 has TGI that meets 30 µM or exceeds it?
(A) false (0)

(Q) Reported TGI reaches at least 30 µM for Cc1c2c(c(C)c3c[n+](C)ccc13)Oc1ccccc1O2 ?
(A) true (1)
